B1: CPEB3 Ribozyme (parent)
chain: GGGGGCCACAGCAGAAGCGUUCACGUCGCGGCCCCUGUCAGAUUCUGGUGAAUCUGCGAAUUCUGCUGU

- Variants of: B1
- protocolText: self-cleavage, relative activity (ratio to wild type); higher = more cleavage; co-transcriptional
Reported values of self-cleavage for individual entries

{"columns": ["var", "self-cleavage"],
 "data": [
  ["C18A G41U", 0.211],
  ["A16C C34U", 0.353],
  ["C29U", 0.557],
  ["G48U U69A", 1.01],
  ["C22G U36C", 0.236],
  ["G25C A59C", 0.193],
  ["C6G U21G", 0.0354],
  ["U36G U38G", 0.2],
  ["U38A G47U", 1],
  ["G3A A60U", 0.123],
  ["U36A G56U", 0.177],
  ["U43C U67C", 0.969],
  ["C33U U36C", 0.874],
  ["G25A G58C", 0.159],
  ["U46C C54A", 0.772],
  ["G14U U38A", 0.566],
  ["U21C G50U", 0.878],
  ["A10U G47A", 1.03],
  ["U20C A60G", 0.166],
  ["C22U A42U", 0.27],
  ["U62C U67G", 0.865],
  ["A60G C66G", 0.559],
  ["C29U G37A", 0.157],
  ["G17A U21A", 0.384],
  ["A60U U62C", 0.492],
  ["A13G U44G", 0.826],
  ["C18U C45A", 0.792],
  ["C22U U38A", 0.272],
  ["C6U G37A", 0.22],
  ["U43A U46G", 0.943],
  ["C6U U44A", 0.887],
  ["G31U A42C", 0.458],
  ["C33G C39U", 0.337],
  ["U44G C66U", 0.986],
  ["G31A C45A", 0.833],
  ["C32U U44A", 0.948],
  ["G41C C45A", 0.34],
  ["U43G C66U", 0.794],
  ["G4A G41A", 0.506],
  ["C34U G56C", 0.792],
  ["C18U A42G", 0.579],
  ["A15G C18U", 0.792],
  ["C22G G48A", 0.226],
  ["G11U C33G", 0.619],
  ["G41A U53G", 0.566],
  ["G5C C18U", 0.148],
  ["G4U U36G", 0.492],
  ["G17C G50U", 0.157],
  ["A40U U46G", 0.878],
  ["U49C A51C", 0.981],
  ["G11C C45A", 0.757],
  ["C35U G58U", 0.984],
  ["G3C C34G", 0.783],
  ["A23U U64A", 0.943],
  ["G17U U20A", 0.151],
  ["U49A A52G", 0.979],
  ["A13C G37U", 0.225],
  ["G30C U55G", 0.323],
  ["G14U U53G", 0.439],
  ["U44G U53C", 0.749],
  ["G3A G19C", 0.0671],
  ["G3A A10G", 0.679],
  ["A15C C27G", 0.123],
  ["C54U G68C", 1.02],
  ["C7A C39U", 0.348],
  ["C29U U61A", 0.244],
  ["G65A C66U", 0.77],
  ["C24U U43A", 0.679],
  ["G2U G3C", 0.0704]
]}
